- target_system: T1, Cynomolgus Monkey VSIG4-L-His (cynomolgus monkey)
- T1 construct: ECD with His tag; also called cyVSIG4-L; cyno VSIG4-L-His
- T1 chain: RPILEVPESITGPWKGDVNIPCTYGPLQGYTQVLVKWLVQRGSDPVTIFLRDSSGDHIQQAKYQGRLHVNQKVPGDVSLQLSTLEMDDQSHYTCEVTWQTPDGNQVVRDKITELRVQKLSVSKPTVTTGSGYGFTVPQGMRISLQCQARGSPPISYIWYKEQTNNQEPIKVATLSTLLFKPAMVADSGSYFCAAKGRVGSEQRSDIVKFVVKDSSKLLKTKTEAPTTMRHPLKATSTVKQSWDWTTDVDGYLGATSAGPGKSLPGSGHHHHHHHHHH
- protocol_notes: BLI, IgG on AHC sensor, antigen 100 nM
Please respond with reported KD relative to parental chimera for every item in the list.
Report the value in fold with no unit label.

Report KD relative to parental chimera for h14C05.E humanized IgG4 (S228P) kappa (antibody, V domains shown) VH: QVQLVQSGAEVKKPGASVKVSCKASGYTFTNYGMNWVRQAPGQGLEWMGSINTYTGEATYADKFQGRVTMTLDTSTNTAYMELSSLRSEDTAVYYCARGDYYGRGTWFAYWGQGTLVTVSS VL: ETVVTQSPATLSLSPGERATLSCRASQDVSTAVAWYQQKPGQAPRLLIYSASYRYPGIPARFSGSGSGTDFTLTISSLEPEDFAVYYCQQDYSSPWTFGGGTKLEIKR please. 0.3

Report KD relative to parental chimera for h14D12.A humanized IgG4 (S228P) kappa (antibody, V domains shown) VH: QIQLVQSGSELKKPGASVKVSCKASGYTFTNYGMNWVRQAPGQGLEWMGLINTYTGEPTYADGFTGRFVFSLDTSASTAYLQISSLKAEDTAVYFCARERIYGYLHYFDYWGQGTTVTVSS VL: DVVMTQSPDSLAVSLGERATINCKASQSVDYDGDSYMNWYQQKPGQPPKLLIYAASNLESGVPDRFSGSGSGTDFTLTISSLQAEDVAVYYCQQSNEDPRTFGGGTKLEIKR please. 1.2

Report KD relative to parental chimera for 13H11 mouse/human chimeric IgG4 (S228P) kappa (antibody, V domains shown) VH: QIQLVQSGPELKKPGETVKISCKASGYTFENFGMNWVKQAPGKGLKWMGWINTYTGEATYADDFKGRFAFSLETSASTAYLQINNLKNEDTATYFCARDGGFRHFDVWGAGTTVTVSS VL: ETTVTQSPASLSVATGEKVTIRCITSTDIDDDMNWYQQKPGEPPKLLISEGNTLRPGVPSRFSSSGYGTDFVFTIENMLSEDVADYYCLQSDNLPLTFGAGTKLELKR please. 1
